- Method Summary: Human HepG2 cell viability assay in 384 well format
- Type: toxicity, cell-based
- Set-up: dose 125 nL, time 70.5 hour; concentration not given beside the values
- Particulars: HepG2 cells, read-out: Inhibition
Readout: cytotoxicity at 70.5 h (%)

Compound	Reported Result
COc1c(CNC(c2ccccc2F)c2nccn2C)c(C)nn1C (stereo unspecified)	-4.51
O=C(c1ccoc1)N1CCO[C@@H]2CNC[C@@H]21	-1.42
CC(C)c1nn(CC(=O)N2CCCCC2)c(=O)c2c1cnn2C(C)(C)C	-10.1
O=C(CN1CCCC(CO)C1)NCCOc1cccc(Cl)c1 (stereo unspecified)	27.5
CC(C)c1ccc(/C=C/CC(=O)NC2CCN(C(N)=O)CC2)cc1	-9.67
COc1ccc(CN2CCO[C@@H]3C[C@@H](C(=O)NC(C)C)C[C@H]32)cc1	-5.46
CCc1ccc(CNC(=O)N2CCN(Cc3cc(C)no3)CC2)s1	19.6
CC(C)C(=O)NC1CCCN(C(=O)c2cc3ccccc3cc2O)C1 (stereo unspecified)	-4.18
COc1ccc(C(C)NC(=O)Cn2ccc(=O)n(C)c2=O)cc1OC (stereo unspecified)	-6.92
CCOc1ccccc1NC(=O)N(CCO)Cc1ccsc1	2.23
CCc1ncncc1C(=O)N1CCN(Cc2c(C)noc2C)CC1	-11.6
CCOc1cncc(N2CCN(c3ccccc3O)CC2)n1	13.6
N#Cc1cccnc1N1CCCN(C(=O)CCc2nccs2)CC1	-1.9
CC(NCc1c(C(C)C)nn(C)c1N1CCOCC1)C(N)=O (stereo unspecified)	15.3
Cc1ccc(NC(=O)N2CCCC(N(C)C)C2)c(Br)c1 (stereo unspecified)	-3.97
CN(Cc1nc(C2CC2)no1)C(=O)CN1CC(c2ccccc2)CC1=O (stereo unspecified)	-2.96
CCOc1cccc2c1OCC(C(=O)NC(C)Cn1cccn1)=C2 (stereo unspecified)	16.6
CCN(CC)C(=O)CCNC(=O)c1c[nH]c2ccc(OC)cc12	1.48
CCCSCC(=O)N1C[C@H]2CC[C@@H]1CN(Cc1cccnc1)C2	6.46
Cc1nnc(CN2CCN(CCOc3ccccc3C#N)CC2)n1C	7.15
OC1CCN(c2ccnc(NCCN3CCc4ccccc4C3)n2)C1 (stereo unspecified)	-13.9
Cc1nc(N2CCOCC2)nc2c1CN(C(=O)Cc1ccccn1)CC2	-8.21
CSc1ccc(-c2nc(CN3CCC(CN)C3)c(C)o2)cc1 (stereo unspecified)	-3.18
Cc1cc(C)n(CC(=O)N2CCC(c3nc(C(C)C)no3)CC2)n1	-7.07
O=C1COc2ccc(C(=O)NS(=O)(=O)c3ccccc3Cl)cc2N1	-14.9
COc1cccc(CNC(=O)CN2CCCC(Cn3cncn3)C2)c1 (stereo unspecified)	-1.72
Cc1ccc2ncccc2c1CN1CC[C@H](N(C)C)[C@H](CCC(=O)O)C1	-7.41
O=C([C@@H]1CCO[C@@H]2CCN(Cc3cccnc3)C[C@H]21)N1CCCCO1	-13.8
Cc1nc(-c2ccc(C(=O)O)cc2)cc(C2CCN(C(C)C)CC2)n1	12.2
O=C(NCCCNC(=O)c1cccc(O)c1)NCc1ccccc1F	-9.83
O=C1CCC(=O)N1c1nn(Cc2cccc(F)c2)cc1Cl	-0.348
O=C(Nc1ccccc1C(=O)NCCCN1CCOCC1)c1ccco1	-6.18
Cn1cccc1C(=O)N1C[C@H]2CC[C@@H]1CN(Cc1cscn1)C2	1.29
CC(C)c1n[nH]c(C2CN(C(=O)c3cc(C4CC4)on3)CCO2)n1 (stereo unspecified)	-11.3
Cc1cc(CN(C)C(=O)c2ccc(OCC(F)(F)F)nc2)no1	0.93
O=C1CCCN1CCC1CCCCN1C(=O)c1ccc(SCCO)cc1 (stereo unspecified)	-6.58
OCC1(NCc2cnc(-c3ccccn3)s2)CCOCC1	28
Cc1nc(-c2ccccc2)ccc1C(=O)N1CCN(CCO)CC1	-1.89
CN1CCCC2(CC1)CCN(C(=O)CCc1ccccc1F)CC2	-6.92
CC(C)c1cc(C(=O)NCCc2nc(-c3cccnc3)n[nH]2)[nH]n1	11.1
CCC1CN(CC(=O)N2CCCC2)CCN1CCOC (stereo unspecified)	-10.3
Cc1nc(C)n(C2CCCN(C(=O)c3ccc(N(C)C)nn3)C2)n1 (stereo unspecified)	-3.22
COc1ccccc1NC(=O)NCCCn1nc2ccccn2c1=O	-3.26
CCC(=O)N1CCN(c2nc(C)nc3c(C)nn(C)c23)CC1	-6.94
CCC(=O)N1CC[C@@H](c2ccc3ccccc3c2)[C@H](O)C1	-10.5
CCc1ccc(C(COC)NC(=O)c2ccc(C(N)=O)cc2)o1 (stereo unspecified)	7.28
